- measurement target: TgDXR (Toxoplasma gondii)
- Sequence (S8ESX0 entry or part of it): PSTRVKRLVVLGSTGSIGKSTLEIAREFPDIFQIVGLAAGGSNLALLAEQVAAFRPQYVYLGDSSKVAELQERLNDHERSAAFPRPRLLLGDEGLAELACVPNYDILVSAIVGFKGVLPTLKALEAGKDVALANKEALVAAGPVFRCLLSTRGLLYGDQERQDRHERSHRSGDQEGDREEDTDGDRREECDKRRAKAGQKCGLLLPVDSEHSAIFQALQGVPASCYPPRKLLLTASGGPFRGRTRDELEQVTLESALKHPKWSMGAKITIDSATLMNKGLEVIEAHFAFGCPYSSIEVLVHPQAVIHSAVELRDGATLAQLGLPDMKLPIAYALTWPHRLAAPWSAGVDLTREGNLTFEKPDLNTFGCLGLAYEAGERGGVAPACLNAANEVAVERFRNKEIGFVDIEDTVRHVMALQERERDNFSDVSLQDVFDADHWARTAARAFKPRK
- assay remarks: T. gondii DXR enzyme inhibition assay (NADPH oxidation, absorption at 340 nm)
- Assay type: biochemical
pIC50: −log10 of the molar value.
quantity kind: pIC50

> print(dat)
                                   compound  measured.number
1  O=CN(O)CCCP(=O)(O)O [Compound 1, Fosmidomycin, reference compound]             5.99

###

- assay remarks: MTT cytotoxicity assay on host cells
- Assay type: cell-based
- details: human, Hs27 fibroblasts, 24 h incubation
This section presents compounds with their documented CC50 at 24 h values.
quantity kind: CC50 at 24 h

> print(dat)
                                   compound    result
1  CN(O)C(=O)CSC(c1ccc(Cl)c(Cl)c1)P(=O)(O)O (centres unmarked)  > 200 µM
2  CN(O)C(=O)CSC(c1cc(F)cc(F)c1)P(=O)(O)O (centres unmarked)  > 200 µM
3  CCc1nc(N)nc(N)c1-c1ccc(Cl)cc1 [Pyrimethamine, pyrimethamine, reference compound]  > 100 µM
4  CN(O)C(=O)COC(c1ccccc1)P(=O)(O)O (centres unmarked)  > 200 µM
5  Cc1ccc(C(OCC(=O)N(C)O)P(=O)(O)O)cc1 (centres unmarked)  > 200 µM

The reported measurements were obtained from paper PMC11346426.
